target: imidazoline I1 receptor; experiment: Measurement of in vitro affinity for the I1 receptor (radioligand displacement); details: [3H] clonidine + 10 μM noradrenaline; bovine lateral reticulated nucleus
QUANTITY MEASURED: pKi
// field semantics: pKi = negative decimal log of concentration (mol/L)

Query: Reported pKi, molecule Cc1ccc2c(c1)N(C)CC(C1=NCCN1)O2 (stereo not shown) [Example 2] : ____
Response: 7.66
